target: quisqualate receptor; test: 3H-AMPA binding (Test 1); settings: displacement of 50% of the specific binding of 3H-AMPA (5 nM), rat cerebral cortical membranes, 0° C., 30 min
For each of the compounds below, state its Test 1 IC50.
One number for each entry, in µg/mL.

O=[N+]([O-])c1cc2nc(O)c(O)nc2c2cccnc12    0.61
O=[N+]([O-])c1cc2nc(O)c(O)nc2c2c1CCCC2    0.17
O=[N+]([O-])c1cccc2c1c([N+](=O)[O-])cc1nc(O)c(O)nc12    0.06

Would you mind listing Test 1 IC50 for each of the following compounds?
1. O=[N+]([O-])c1cc2nc(O)c(O)nc2c2ccccc12 [2,3-Dihydroxy-6-nitrobenzo(f)quinoxaline]
2. Nc1cc2nc(O)c(O)nc2c2ccccc12 [6-Amino-2,3-dihydroxybenzo(f)quinoxaline]
3. O=[N+]([O-])c1cc2nc(O)c(O)nc2c2c([N+](=O)[O-])cccc12
4. O=[N+]([O-])c1cccc2c(Br)cc3nc(O)c(O)nc3c12

1: 0.69; 2: 1.1; 3: 0.85; 4: 9.2

###

tested on: NMDA receptor; test: Inhibition of NMDA stimulated 3H-GABA release from cultured cerebral cortex interneurons (Test 3); type: cell-based; conditions: inhibits 50% of NMDA (3 μg/ml) induced 3H-GABA release, mouse cerebral cortex interneurons
For each of the compounds below, state its Test 3 IC50.
Answers are plain numbers, in µg/mL.

Consider the reported Test 3 IC50 for these compounds:
O=[N+]([O-])c1cc2nc(O)c(O)nc2c2c1CCCC2    0.092
O=[N+]([O-])c1cc2nc(O)c(O)nc2c2c([N+](=O)[O-])cccc12    0.97
O=[N+]([O-])c1cccc2c(Br)cc3nc(O)c(O)nc3c12    0.25
O=[N+]([O-])c1cc2nc(O)c(O)nc2c2ccccc12 [2,3-Dihydroxy-6-nitrobenzo(f)quinoxaline]    0.39
O=[N+]([O-])c1cccc2c1c([N+](=O)[O-])cc1nc(O)c(O)nc12    0.3

Please turn your attention to the following entry.
Could you tell me which Test 3 IC50 is on file for O=[N+]([O-])c1cc2nc(O)c(O)nc2c2cccnc12 ?
1.5
